Sourced from BigSolDB 2.1

Details: in n-butanol, 318.15 K
assay-readout: solubility (mole fraction)
Give the figure by itself; no unit, no explanation.

# query: solubility (mole fraction) of entry "NC(=O)OCCCc1ccccc1"
0.0824

----------
Details: in ethanol, 303.15 K
assay-readout: solubility (mole fraction)

# query: solubility (mole fraction) of entry "NC(=O)OCCCc1ccccc1"
0.0392

----------
Details: in acetone, 283.15 K
assay-readout: solubility (mole fraction)
Give the figure by itself; no unit, no explanation.

# query: solubility (mole fraction) of entry "NC(=O)OCCCc1ccccc1"
0.0652

----------
Conditions: in n-propanol, 308.15 K
assay-readout: solubility (mole fraction)
Give the figure by itself; no unit, no explanation.

# query: solubility (mole fraction) of entry "NC(=O)OCCCc1ccccc1"
0.045
